Target: Alpha-2A adrenergic receptor (Homo sapiens, UniProt P08913)
Sequence (P08913 whole entry): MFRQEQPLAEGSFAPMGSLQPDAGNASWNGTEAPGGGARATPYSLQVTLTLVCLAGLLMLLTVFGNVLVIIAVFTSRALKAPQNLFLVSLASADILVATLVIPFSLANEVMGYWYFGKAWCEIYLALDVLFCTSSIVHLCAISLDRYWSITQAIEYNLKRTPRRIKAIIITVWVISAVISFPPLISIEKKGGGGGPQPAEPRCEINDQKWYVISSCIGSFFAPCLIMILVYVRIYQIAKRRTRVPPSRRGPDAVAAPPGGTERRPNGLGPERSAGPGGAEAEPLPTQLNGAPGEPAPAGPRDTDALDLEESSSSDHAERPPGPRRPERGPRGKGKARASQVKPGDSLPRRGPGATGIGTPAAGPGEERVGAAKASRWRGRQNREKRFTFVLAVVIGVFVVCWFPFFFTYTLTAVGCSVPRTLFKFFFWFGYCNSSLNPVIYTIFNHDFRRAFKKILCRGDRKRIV
pKi: −log10 of the molar value.
property.name: pKi

1. CC(O)c1nn(CCCN2CCN(c3ccc(Cl)cc3)CC2)c(=O)n1CCOc1ccccc1 (stereo not given) ... 7.20
2. CN(C)CCC=C1c2ccccc2CCc2ccccc21 ... 6.94
3. O=c1[nH]n(CCCN2CCN(c3cccc(Cl)c3)CC2)c(=O)n1CCOc1ccccc1 ... 5.72
4. Clc1cccc(N2CCNCC2)c1 ... 6.95
